Protocol Description: Tmax in rat at 2 mg/kg, po
Assay type: ADME, organism-based
Condition Set: in vivo
Readout Kind: Tmax

CC(C)(C)C(=O)N1N=CCC1c1cccnc1 (configuration not stated) : 5 min
CC(=O)N1CCC(C(=O)N2N=CC[C@H]2c2ccccc2)CC1 : 30 min
N#Cc1cc(N2CCC(C(=O)N3N=CC[C@H]3c3cc(F)cc(F)c3)CC2)ncn1 : 30 min

Consider CC(C)(C)C(=O)N1N=CCC1c1cocn1 (configuration not stated) . Its measured Tmax is 5 min

GET /value?item= N#Cc1cnc(N2CCC(C(=O)N3N=CC[C@H]3c3cc(F)cc(F)c3)CC2)cn1 &field=Tmax returns 38 min

# Tmax (compound: Cc1nnc(N2CCC(C(=O)N3N=CC[C@H]3c3cc(F)cc(F)c3)CC2)o1 ) is 25 min

Please fill in: Tmax reported for O=C(C1CCOCC1)N1N=CCC1c1ccccc1 (configuration not stated) = 5 min

* * *

Protocol Description: Chromatographic hydrophobicity index, log D of the compound at pH 7.4 by reverse-phase HPLC analysis
Assay type: physicochemical
Condition Set: buffer
Recorded chromatographic logD, one value per entry.
Give only the figure.

// recorded chromatographic logD for CC(=O)N1CCC(C(=O)N2N=CC[C@H]2c2ccccc2)CC1 : 2.5

Form: compound = CC(C)(CN)C(=O)N1N=CCC1c1ccccc1 (stereo not drawn) ; chromatographic logD = 1.4

Measured chromatographic logD, CC(C)(C)C(=O)N1N=CCC1c1ccc(Cl)cc1 (stereo not drawn) : 6.6

Recorded result, Cc1nnc(N2CCC(C(=O)N3N=CC[C@H]3c3ccccc3)CC2)o1 , chromatographic logD: 3.2

Input CC(C)(C)C(=O)N1N=CCC1c1ccccc1 (racemic) . Output chromatographic logD: 5.8

Recorded result, CC(C)(C)C(=O)N1N=CCC1c1cccc(F)c1 (stereo not drawn) , chromatographic logD: 5.9

* * *

Protocol Description: AUC (0 to infinity) in rat at 1 mg/kg, iv
Format: ADME, organism-based
Parameters: dose 1 mg/kg, time infinity, route intravenous
Condition Set: in vivo
Readout Kind: AUC(0-inf) (ng·h/mL)
Use ng·h/mL as the unit, but write only the number.

N#Cc1cnc(N2CCC(C(=O)N3N=CC[C@H]3c3cc(F)cc(F)c3)CC2)cn1 : 400
O=C(c1cnco1)N1CCC(C(=O)N2N=CC[C@H]2c2ccccc2)CC1 : 400

Next item in the queue.
For record N#Cc1cc(N2CCC(C(=O)N3N=CC[C@H]3c3cc(F)cc(F)c3)CC2)ncn1 the listed AUC(0-inf) is 410

* * *

Protocol Description: Chromatographic hydrophobicity index, log D of the compound at pH 7.4 by reverse-phase HPLC analysis
Assay type: physicochemical
Condition Set: buffer
Readout Kind: chromatographic logD
Form field (numeric): enter value without unit.

Sure, the documented chromatographic logD for O=C(c1cnco1)N1CCC(C(=O)N2N=CC[C@H]2c2ccccc2)CC1 is 2.7

Value of chromatographic logD reported for the molecule C[C@@H]1C=NN(C(=O)C(C)(C)C)[C@@H]1c1ccccc1 is 6.5

Per the record, O=C(c1ccccn1)N1CCC(C(=O)N2N=CCC2c2ccccc2)CC1 (stereo not drawn) has chromatographic logD of 3.1

Recorded chromatographic logD (molecule O=C(C1CCN(c2ccccc2)CC1)N1N=CCC1c1ccccc1 (stereo not drawn) ): 6.3

Sure, the documented chromatographic logD for N#Cc1cnc(N2CCC(C(=O)N3N=CC[C@H]3c3cc(F)cc(F)c3)CC2)cn1 is 5.2

Record summary for O=C(c1cccnc1)N1CCC(C(=O)N2N=CCC2c2ccccc2)CC1 (stereo not drawn) : reported chromatographic logD = 2.6

Reported chromatographic logD for O=C(C1CCC1)N1N=CCC1c1ccccc1 (stereo not drawn) was 4.7

Noted for N#Cc1ccc(N2CCC(C(=O)N3N=CC[C@H]3c3cc(F)cc(F)c3)CC2)nn1 : its chromatographic logD reads 4.8
